- System: human Factor 7 mRNA
- assay_comment: Antisense inhibition of human Factor 7 mRNA in HepB3 cells, 50 nM antisense oligonucleotide, lipofectin
- Assay type: cell-based
- run_parameters: Table 1, 50 nM, lipofectin, approximately 24 hours, relative to untreated control cells
Strand notation (5' to 3'): a small letter for the sugar, then the base; units joined by * are phosphorothioate-linked, units joined directly phosphodiester-linked; [ ] holds rarer units or linkages, { } end groups; capitals alone tell only the bases. e = 2'-O-(2-methoxyethyl) (MOE); [5mC] = 5-methylcytosine; d = 2'-deoxy (DNA)
Please respond with reported % Inhibition for every item in the list.
API: value field is a number in %; no unit string.

// recorded % Inhibition for 407941 (antisense eG*eA*eG*eA*e[5mC]*dG*d[5mC]*dA*dG*d[5mC]*d[5mC]*dG*dT*dT*dT*eA*eT*eT*eG*eT) [compound 407941] : 65

// recorded % Inhibition for 407602 (antisense e[5mC]*eT*eG*e[5mC]*eA*dG*d[5mC]*d[5mC]*dA*dG*dG*d[5mC]*dA*dG*d[5mC]*e[5mC]*e[5mC]*eT*eG*eA) [compound 407602] : 81

// recorded % Inhibition for 407618 (antisense eG*eT*eA*eT*eT*dT*dT*dT*d[5mC]*d[5mC]*dA*d[5mC]*dA*dT*dG*eG*eA*eT*eA*eT) [compound 407618] : 42
